Every entry's value here was drawn from PubChem BioAssay (Tox21).

Test: qHTS assay to identify small molecule antagonists of the sonic hedgehog signaling (Shh) pathway (AID 1259369); also: nearly all actives have a fitted effect of over 45% in size
Conditions: NIH/3T3 Gli1-Luc reporter, Shh antagonist, luminescence 24 h; series mostly up to 92.4 µM
Results filed as inconclusive are left out. Activity calls are given as the source filed them. Calls follow the shape of the full dose curve.
// classify into active, inactive

Outcome logged for CC(C)(C)N in this assay:
inactive

Outcome logged for CC(C)CCCCCCCOC(=O)c1ccc(C(=O)OCCCCCCCC(C)C)c(C(=O)OCCCCCCCC(C)C)c1 in this assay:
active

Outcome logged for CCCCCCCCCC(C)C=O (stereo unspecified) in this assay:
inactive

Outcome logged for Cc1c(Cl)cccc1[N+](=O)[O-] in this assay:
inactive

Outcome logged for Nc1ncnc2c1ncn2[C@@H]1O[C@H](CO)[C@@H](O)[C@H]1O in this assay:
inactive

Outcome logged for C=CC(=O)NC(C)(C)C in this assay:
inactive

* * *

Assay: qHTS assay to identify small molecule agonists or antagonists of the thyroid stimulating hormone receptor (TSHR) signaling pathway - wild type cell line counter screen (AID 1259384)
Conditions: HEK293 wild type, cAMP HTRF counter-screen, hits give high values; series mostly up to 92.4 µM
Results filed as inconclusive are left out. Activity calls are given as the source filed them. Calls follow the shape of the full dose curve.
observed-property: cAMP activity change

- compound: "Cc1c(Cl)cccc1Nc1ccccc1C(=O)O"
  cAMP activity change: "inactive"
- compound: "CC1(C)[C@@H]2CC[C@]3(C2)[C@@H]1C(=O)CCC3(C)C"
  cAMP activity change: "inactive"
- compound: "O=C1CCCN1CCO"
  cAMP activity change: "inactive"
- compound: "CCc1c(C)[nH]c2c1C(=O)C(CN1CCOCC1)CC2 (configuration not stated)"
  cAMP activity change: "inactive"
- compound: "O=C(O)COCC(=O)O"
  cAMP activity change: "inactive"
- compound: "O=[N+]([O-])c1cccc(I)c1"
  cAMP activity change: "inactive"
- compound: "CC(=O)S[C@H](C(=O)N[C@H]1Cc2ccccc2[C@H]2CCC[C@@H](C(=O)O)N2C1=O)C(C)C"
  cAMP activity change: "inactive"
- compound: "C=CC(=O)NC(C)(C)C"
  cAMP activity change: "inactive"
- compound: "C/C=C1\\[C@H]2C=C(C)C[C@]1(N)c1ccc(=O)[nH]c1C2"
  cAMP activity change: "inactive"
- compound: "Cc1ccc2c(Cl)cc(Cl)c(O)c2n1"
  cAMP activity change: "inactive"

Entry under review: CCC(=O)O[C@]1(C(=O)COC)[C@@H](C)C[C@H]2[C@@H]3CCC4=CC(=O)C=C[C@]4(C)C3(F)[C@@H](O)C[C@@]21C (some centres not stated) . Reported cAMP activity change?
inactive

Entry under review: Cc1ccc(NC=O)c(C)c1 . Reported cAMP activity change?
inactive

* * *

Test: qHTS assay for identifying genotoxic compounds that show differential cytotoxicity against isogenic chicken DT40 cell lines with known DNA damage response pathways - Rad54/Ku70 mutant cell line (AID 743015); also: nearly all actives have a fitted effect of over 60% in size
Conditions: DT40 Rad54/Ku70 mutant viability, CellTiter-Glo, 40 h; series mostly up to 66.8 µM
Records with an inconclusive call do not appear. Activity calls are given as the source filed them. Calls follow the shape of the dose curve; as a rule, active = well fitted cell-killing curve with a large enough effect in the repeat runs; inconclusive = weak or mixed curves; inactive = no such curve, though single readings can be large or run the other way.
// classify into active, inactive

Outcome logged for CCCC1CCCC(=O)O1 (stereo not given) in this assay:
inactive

Outcome logged for O=Cc1ccc([N+](=O)[O-])cc1 in this assay:
active

Outcome logged for C1=COCCC1 in this assay:
inactive

Outcome logged for Nc1cccc2c(=O)[nH][nH]c(=O)c12 in this assay:
inactive

Outcome logged for Clc1cccc(C(c2ccc3nc[nH]c3c2)n2ccnc2)c1 (stereo not given) in this assay:
active

Outcome logged for CCOc1ccc(NC(C)=O)cc1N in this assay:
inactive

Outcome logged for C=CC(O)CCCCC (stereo not given) in this assay:
inactive

Outcome logged for COc1ccc(CN(CCN(C)C)c2ncccn2)cc1 in this assay:
inactive

Outcome logged for O=C(c1ccc(Cl)cc1)c1ccc(Cl)cc1 in this assay:
inactive

Outcome logged for O=C(O)CNc1ccccc1 in this assay:
inactive

Outcome logged for CC(=O)c1ccc(Cl)c(Cl)c1Cl in this assay:
inactive

Outcome logged for O=c1[nH][nH]c2ccccc12 in this assay:
inactive

Outcome logged for CC1=CC(=C(c2ccc(N)cc2)c2ccc(N)cc2)C=CC1=N in this assay:
active

Outcome logged for O=C(O)c1ccncc1 in this assay:
inactive

Outcome logged for Cc1cc(C)c(C)c(O)c1 in this assay:
inactive

Outcome logged for CC1=C(C)C(=O)C(CCCCC#CCCCC#CCO)=C(C)C1=O in this assay:
active

Outcome logged for CC1(COc2ccc(CC3SC(=O)NC3=O)cc2)CCCCC1 (stereo not given) in this assay:
active

Outcome logged for CCCCCCCCCCCCCCCCN in this assay:
inactive

Outcome logged for CCC[Si](OC)(OC)OC in this assay:
inactive

Outcome logged for CC(=O)Oc1cccc2c1C(=O)c1c(OC(C)=O)cc(C(=O)O)cc1C2=O in this assay:
inactive

Outcome logged for CCCCCCCCCC(C)C=O (stereo not given) in this assay:
inactive

Outcome logged for CC(=O)OCC(=O)[C@@]1(O)CC[C@H]2[C@@H]3CCC4=CC(=O)C=C[C@]4(C)[C@@]3(F)[C@@H](O)C[C@@]21C in this assay:
inactive

Outcome logged for C/C(=C\C(C)CC(C)CC(C)C)C1CC(=O)OC1=O (stereo not given) in this assay:
inactive

Outcome logged for CCCCCCCCS in this assay:
inactive

Outcome logged for CCCCCCCCCCCCSC#N in this assay:
inactive

Outcome logged for O=C(Cl)c1cc(Cl)cc(Cl)c1 in this assay:
inactive

Outcome logged for CC1(C)C(=O)NC(=O)N1CO in this assay:
inactive

Outcome logged for CCc1cnc(C(=O)O)c(C(=O)O)c1 in this assay:
inactive

Outcome logged for CC(C)=CCCC(C)C=O (stereo not given) in this assay:
active

Outcome logged for CCCCCCCCCCCC(=O)OCC in this assay:
inactive

Outcome logged for O=C(O)c1cc(C(=O)O)c(C(=O)O)cc1C(=O)O in this assay:
inactive

Outcome logged for O=C(O)c1cccc(C(=O)O)c1C(=O)O in this assay:
inactive

Outcome logged for c1ccc(CCNc2nc(-c3ccccc3)cs2)cc1 in this assay:
active

Outcome logged for CCCN(C1CCN(C(=O)C2CCNCC2)CC1)[C@@H]1CCc2ccc(OC)cc2C1 in this assay:
active

Outcome logged for COC(=O)c1cc(Cl)ccc1[N+](=O)[O-] in this assay:
inactive

* * *

Assay: qHTS RealTime-Glo MT Cell Viability Assay in HEK293 cells - 24 hour (AID 1224886); also: nearly all actives have a fitted effect of over 50% in size
Conditions: RealTime-Glo luminescence; series mostly up to 76.8 µM
Results filed as inconclusive are left out. Calls of active or inactive are those of the source. The call rests on the fitted dose curve; in most records, active means well fitted cell-killing curve with a large enough effect in the repeat runs; inconclusive means weak or mixed curves, or effect the other way; inactive means flat fitted curve, though single readings scatter.
// classify into true (1) = active, false (0) = inactive

Outcome logged for O=[N+]([O-])c1ccc(Cl)cc1Cl in this assay:
false (0)

Outcome logged for CCCCCCCCNC in this assay:
false (0)

Outcome logged for Nc1ccc(C(=O)Oc2ccccc2)c(O)c1 in this assay:
false (0)

Outcome logged for CCCCOC(=O)CC#N in this assay:
false (0)

Outcome logged for O=C(O)c1cc(C(=O)O)cc([N+](=O)[O-])c1 in this assay:
false (0)

Outcome logged for CCCC(=O)OCCC(C)C in this assay:
false (0)

Outcome logged for OCCCO in this assay:
false (0)

Outcome logged for NC(=O)c1ccccc1C(N)=O in this assay:
true (1)

Outcome logged for O=C(O)CNc1ccccc1 in this assay:
false (0)

Outcome logged for O=C(O)c1cccc(C(=O)O)c1C(=O)O in this assay:
false (0)

Outcome logged for O=C(O)CCc1nc2ccccc2[nH]1 in this assay:
false (0)

Outcome logged for O=C1c2ccccc2C(=O)c2c1ccc(O)c2O in this assay:
false (0)

Outcome logged for CC(CCl)OC(C)CCl (stereo unspecified) in this assay:
false (0)

Outcome logged for CCOC(C)OCC in this assay:
false (0)

Outcome logged for Cc1ccc(Cl)c(OCC(O)CNC(C)(C)C)c1 (stereo unspecified) in this assay:
false (0)

Outcome logged for C=CC(O)CCCCC (stereo unspecified) in this assay:
false (0)

Outcome logged for CCCCCCCCOCCCN in this assay:
false (0)

Outcome logged for Cc1c(Cl)cccc1[N+](=O)[O-] in this assay:
false (0)

Outcome logged for Oc1ccc(Oc2ccccc2)cc1 in this assay:
true (1)

Outcome logged for CCCCCCOC(=O)c1ccccc1 in this assay:
false (0)

Outcome logged for O=C(Cl)c1cc(Cl)cc(Cl)c1 in this assay:
false (0)

Outcome logged for Sc1nc(S)nc(S)n1 in this assay:
false (0)

Outcome logged for CCc1ccc2c(c1)C(=O)c1ccccc1C2=O in this assay:
false (0)

Outcome logged for C=C[Si](OCC)(OCC)OCC in this assay:
false (0)

Outcome logged for CC1(C)[C@@H]2CC[C@]3(C2)[C@@H]1C(=O)CCC3(C)C in this assay:
false (0)

Outcome logged for Nc1ncnc2c1ncn2[C@@H]1O[C@H](CO)[C@@H](O)[C@H]1O in this assay:
false (0)

Outcome logged for CC1(C)CC(=O)CC(C)(C)N1 in this assay:
false (0)

Outcome logged for O=C(O)c1cccnc1Nc1cccc(C(F)(F)F)c1 in this assay:
false (0)

Outcome logged for OCCc1ccncc1 in this assay:
false (0)

Outcome logged for CC(C(=O)O)c1ccc(/C=C2\CCCCC2=O)cc1 (stereo unspecified) in this assay:
false (0)

Outcome logged for O=C(OC1C[C@H]2CC[C@@H](C1)[N+]21CCCC1)C(O)(c1ccccc1)c1ccccc1 (stereo partly specified) in this assay:
false (0)
